Just for reference, PubChem BioAssay (NCI) is where these values come from.

- Test system: HCT-116 colon
- assay summary: NCI-60 one-dose screen, 48 h (100 = growth as untreated, 0 = no growth, -100 = all killed)
- measurement parameters: 10 µM unless noted
The panel holds about 83,000 compounds, 20% with a hit somewhere; the sample as a whole holds those more often.
parameter: growth (%)
Answers are plain numbers, in %.

compound	measured target	growth [%]
COC1C(O)CC(OC2CC(Oc3cc4cc5c(c(O)c4c(O)c3C)C(=O)[C@@H](OC3CC(OC4CC(OC6CC(C)(O)C(OC(C)=O)C(C)O6)C(O)C(C)O4)C(O)C(C)O3)[C@H]([C@H](OC)C(=O)[C@@H](O)[C@@H](C)O)C5)OC(C)C2OC(C)=O)OC1C (stereo partly drawn)	HCT-116 colon	0.84
CN(C)c1ccc(C=C2C(=O)NC(=O)NC2=O)cc1	HCT-116 colon	53.9
Cc1ccc(C(=O)O[C@H](C(=O)O)[C@H](OC(=O)c2ccc(C)cc2)C(=O)O)cc1	HCT-116 colon	103

Dear reader, for each entry below, please note its growth.
1. CCOC(=O)c1cncn1C(C)c1ccccc1 (stereo not drawn)
2. C/C(=N/OC(=O)N(C)C)c1ccc(Cl)c(Cl)c1
3. CC1(C)C=Cc2c(ccc3c2[N+]([O-])=C2C3=C[C@@]34NC(=O)[C@]5(CCCN5C3=O)C[C@@H]4C2(C)C)O1
4. CC[PH+](CC)CC.O=COC1OC([S-])C(OC=O)C(OC=O)C1OC=O.[Au+] (stereo not drawn)
5. COc1ccc(N(CC(=O)NCCC[Te]c2ccccc2)C(=O)c2ccccc2)cc1

1. 106
2. 107
3. 17.4
4. -50.3
5. 9.88

---

- Test system: HCT-15 colon
- assay summary: NCI-60 one-dose screen, 48 h
- measurement parameters: 10 µM unless noted
This is part of a sample that, as a whole, favours compounds with a hit. Of some 83,000 tested, about 20% had one in any assay. The source made the active and inactive calls. The calls were made as follows: active = growth percent below 10; inactive = the rest.
Classes to choose from: active, inactive

For orientation, consider the following solved cases.
compound	measured target	group label
C[C@H](O)CCC(=O)c1ccoc1	HCT-15 colon	inactive
C/C(=C(\c1ccc(OCCN2CCOCC2)cc1)c1ccc(OC(=O)Cc2ccccc2)cc1)c1ccc(Cl)cc1	HCT-15 colon	inactive
C[C@]12CC[C@H]3[C@@H](CC=C4c5nc(-c6ccc(Br)cc6)sc5CC[C@@]43C)[C@@H]1CC[C@@H]2O	HCT-15 colon	inactive

So what was the verdict on O=C(O)C(Br)CBr (centres undefined) in this test?
inactive

So what was the verdict on O=C(CBr)OCCOC(=O)CBr in this test?
inactive

So what was the verdict on CC[C@H](C)[C@H](NC(=O)[C@H]1CCCCN1C)C(=O)N(C)[C@H](C[C@@H](OC(C)=O)c1nc(C(=O)NC23C4C5C2C2C3C4C52C(=O)OC)cs1)C(C)C (some centres undefined) in this test?
active

So what was the verdict on CC[C@H](C)[C@H](NC(=O)[C@H]1CCCCN1C)C(=O)N(C)[C@H](C(=O)NC12CC(C(=O)N[C@@H](Cc3ccccc3)C[C@H](C)C(=O)OC)(C1)C2)C(C)C in this test?
inactive

So what was the verdict on CC[C@H](C)[C@H](NC(=O)CN(C)C)C(=O)N(C)[C@H](C[C@@H](OC(C)=O)c1nc(C(=O)NC23CC(C(=O)OC)(C2)C3)cs1)C(C)C in this test?
inactive

So what was the verdict on c1ccc2c(c1)O[As](O[As]1Oc3ccccc3O1)O2 in this test?
inactive

---

- Tested on: HOP-92 NSCLC
- assay summary: NCI-60 one-dose screen, 48 h
- measurement parameters: 10 µM unless noted
- Method: Growth inhibition of the HOP-92 human Non-Small Cell Lung tumor cell line is measured as a screen for anti-cancer activity. Cells are grown in 96 well plates and exposed to the test compound for 48 hours. Compounds are tested at a single concentration, which is 10^-5 M for most compounds. The reported endpoint is percent growth (GI% or GIPRCNT), where numbers from 0 - 100% represent growth inhibition, and numbers from -100% - 0 represent cell death. […]
Compounds without any hit were thinned out: in the full panel of roughly 83,000, 20% have a hit. Calls of active or inactive are those of the source. The calls were made as follows: active = growth percent below 10; inactive = the rest.
Classes to choose from: active, inactive

For orientation, consider the following solved cases.
compound	measured target	group label
C[C@]12CC[C@H]3[C@@H](C[C@@H]4SC(Nc5ccccc5)=N[C@@]45C/C(=N/O)CC[C@]35C)[C@@H]1CCC2=O	HOP-92 NSCLC	inactive
CO/N=C1\CC[C@]2(C)[C@H]3CC[C@]4(C)C(=O)CC[C@H]4[C@@H]3C[C@@H]3SC(N)=N[C@@]32C1	HOP-92 NSCLC	inactive
Cc1ccccc1-n1c(/C=C\c2ccccn2)nc2ccccc2c1=O	HOP-92 NSCLC	inactive
CO[C@H]1[C@H](O[C@@H]2C[C@@H]3C/C=C/C(=O)O[C@@H](CO)C[C@H](O)[C@@H]4C[C@H](C)[C@H](C/C=C\C=C\[C@H](C)C[C@H](C2)O3)O4)O[C@@H](C)[C@H](O)[C@H]1O	HOP-92 NSCLC	inactive
COC(=O)C12C3C4C1C1C2C3C41NC(=O)c1csc([C@@H](C[C@H](C(C)C)N(C)C(=O)[C@@H](NC(=O)[C@H]2CCCCN2C)C2CC2)OC(C)=O)n1 (stereo partly specified)	HOP-92 NSCLC	inactive
COC1C(O)CC(OC2CC(Oc3cc4cc5c(c(O)c4c(O)c3C)C(=O)[C@@H](OC3CC(OC4CC(OC6CC(C)(O)C(OC(C)=O)C(C)O6)C(O)C(C)O4)C(O)C(C)O3)[C@H]([C@H](OC)C(=O)[C@@H](O)[C@@H](C)O)C5)OC(C)C2OC(C)=O)OC1C (stereo partly specified)	HOP-92 NSCLC	active

So what was the verdict on CN(C)c1ccc(C=C2C(=O)NC(=O)NC2=O)cc1 in this test?
inactive

So what was the verdict on N#CC(N)c1ccccc1 (stereo unspecified) in this test?
inactive

So what was the verdict on O=NN1CCCCC1 in this test?
inactive

So what was the verdict on CC1(C)S[C@H]2CC[C@H]3OC(=O)[C@@H]1N23 in this test?
inactive

So what was the verdict on COc1ccc(O)c2c(=O)c3c(OC)cc4c(c3oc12)[C@@H]1C=CO[C@@H]1O4 in this test?
inactive

So what was the verdict on CN(C)C(=S)SSC(=S)N(C)C in this test?
inactive

So what was the verdict on C/C(=C\c1ccn(-c2ccc(N)cc2F)n1)[C@@H]1C[C@@H]2O[C@]2(C)CCC[C@H](C)[C@H](O)[C@@H](C)C(=O)C(C)(C)[C@@H](O)CC(=O)O1 in this test?
inactive

So what was the verdict on Cc1cc(N(CCCl)CCCl)ccc1C=Nc1ccc(-c2csc(-c3ccccc3)n2)cc1 in this test?
inactive

So what was the verdict on N#CCC(=O)c1ccccc1 in this test?
inactive

So what was the verdict on COC12CC3C4=CCOC5CC(=O)N6c7ccccc7C1(CCN2C4)C6C53 (stereo unspecified) in this test?
inactive

So what was the verdict on Cc1cc[c-]cc1.Fc1c[c-]c(-c2ccccn2)c(F)c1.[Pt+2].c1ccc([PH+](c2ccccc2)c2ccccn2)cc1 in this test?
inactive

So what was the verdict on C[C@]12CCc3sc(Nc4ccc(F)cc4F)nc3C1=CC[C@@H]1[C@@H]2CC[C@]2(C)C(=O)CC[C@@H]12 in this test?
inactive

So what was the verdict on O=S(OO)c1cc(Cl)c(O)c(Cl)c1 (stereo unspecified) in this test?
inactive

So what was the verdict on CNC(=O)Oc1ccc(Cl)cc1SSc1cc(Cl)ccc1OC(=O)NC in this test?
inactive

So what was the verdict on CCCN1C(=O)NC(=O)C(CC)(N2C(=O)c3c(F)c(F)c(F)c(F)c3C2=O)C1=O (stereo unspecified) in this test?
active

So what was the verdict on CC[C@H](C)[C@H](NC(=O)C12CC(NC)(C1)C2)C(=O)N(C)[C@H](C[C@@H](OC(C)=O)c1nc(C(=O)N[C@@H](Cc2ccccc2)C[C@H](C)C(=O)OC)cs1)C(C)C in this test?
inactive

So what was the verdict on CC1(C)C=Cc2c(ccc3c2[N+]([O-])=C2C3=C[C@@]34NC(=O)[C@]5(CCCN5C3=O)C[C@@H]4C2(C)C)O1 in this test?
inactive

---

Give growth for every item shown.
- Tested on: NCI/ADR-RES ovarian
- assay summary: NCI-60 one-dose screen, 48 h (100 = growth as untreated, 0 = no growth, -100 = all killed)
- measurement parameters: 10 µM unless noted
About 83,000 compounds went through this panel and 20% of them were active in at least one assay; those are over-represented in the sample as a whole.
Answers are plain numbers, in %.

Consider the following illustrative entries.
compound	parameter	units label	recorded measurement
CC/C(Cc1ccccc1)=C(\c1ccc(OCCN2CCCC2)cc1)c1ccc(OC(=O)NCc2ccccc2)cc1	growth	%	88.1
CCC1(NC(=O)c2cc(F)c(F)c(F)c2F)C(=O)NC(=O)N(C(C)C)C1=O (stereo not drawn)	growth	%	105
CC12CCC3C4CCC(=O)C=C4CCC3C1CC1CC(=O)OC12 (stereo not drawn)	growth	%	101

Dear reader, for each entry below, please note its growth.
1. CC[C@H](C)[C@H](NC(=O)c1ncccn1)C(=O)N(C)[C@H](C[C@@H](OC(C)=O)c1nc(C(=O)N[C@@H](Cc2ccccc2)C[C@H](C)C(=O)OC)cs1)C(C)C
2. CCOC(=O)c1ccccc1C(=O)OCC

[70.6, 102]

Dear reader, for each entry below, please note its growth.
1. CN1CCN(c2ccc(Cl)cc2)CC1
2. C[C@H](O)CCC(=O)c1ccoc1
3. CC(=O)OC1CC2(O)C(CCC3(C)C(c4ccc(=O)oc4)CCC32O)C2(C)CCC(OC3OC(CO)C(O)C(O)C3O)C=C12 (stereo not drawn)
4. O=P1(N(CCCl)CCCl)NCCCO1 (stereo not drawn)
5. Cc1ccccc1-n1c(/C=C\c2ccccn2)nc2ccccc2c1=O
6. Cc1ccc(NC2=N[C@]34CC(=O)CC[C@]3(C)[C@H]3CC[C@]5(C)C(=O)CC[C@H]5[C@@H]3C[C@@H]4S2)c(C)c1

1: 70.1; 2: 102; 3: -61.6; 4: 108; 5: -19.9; 6: 53.4

Dear reader, for each entry below, please note its growth.
1. O=[N+]([O-])c1cc(Cl)c(Cl)c([N+](=O)[O-])c1Cl
2. CC1(C)N=C(N)N=C(N)N1c1ccc(CCC(=O)Nc2ccc(S(=O)(=O)F)cc2)cc1
3. CO/N=C1\CC[C@]2(C)[C@H]3CC[C@]4(C)C(=O)CC[C@H]4[C@@H]3C[C@@H]3SC(N)=N[C@@]32C1
4. O=C(O)CNCP(=O)(O)O
5. CC[C@H](C)[C@H](NC(=O)CN(C)C)C(=O)N(C)[C@H](C[C@@H](OC(C)=O)c1nc(C(=O)NC23CC(C(=O)OC)(C2)C3)cs1)C(C)C

80
117
99.6
110
77.8

Dear reader, for each entry below, please note its growth.
1. CC1=C(C)C(=O)O[C@@H]([C@](C)(O)[C@]2(O)CC[C@@]3(O)[C@@H]4C[C@H]5O[C@]56CC=CC(=O)[C@]6(C)[C@H]4CC[C@]23C)C1
2. C[C@]12CC[C@H]3[C@@H](C[C@@H]4SC(Nc5ccccc5)=N[C@@]45C/C(=N/O)CC[C@]35C)[C@@H]1CCC2=O

42.6
86.2
